// data source = the RNAGym collection of RNA variant scans (doi:10.7554/elife.80360)

B1: CPEB3 Ribozyme (parent)
chain: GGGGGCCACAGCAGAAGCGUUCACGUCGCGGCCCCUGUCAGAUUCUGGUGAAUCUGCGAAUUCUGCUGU

# Variants of: B1
# METHOD DESCRIPTION: self-cleavage, relative activity (ratio to wild type); higher = more cleavage; co-transcriptional
If the reported self-cleavage equals or exceeds 0.6, assign satisfied. If not, assign not satisfied.

Solved entries:
chain="GGGGGCCACAGCAGAAGCGUUCACGUCUCGGCCCCUGUCAGAUUCUGGUGAAUCUGCGAAUUCUUCUGU [G28U G65U]" category="not satisfied"
chain="GGGGGCCACAGCAGAAGCGUUCACGUCGCGGCCCCUGUCAGAUUCUGGUGUAUAUGCGAAUUCUGCUGU [A51U C54A]" category=satisfied
chain="GGGGGCCACUGCAGAAGCGUUCACGUCGCGGCCCGUGUCAGAUUCUGGUGAAUCUGCGAAUUCUGCUGU [A10U C35G]" category=satisfied

Item GGGGGCCACAGCAGAAGCGUUCACGUCGCGGCCCCUGCCAGAUUCUGGUGAACCUGCGAAUUCUGCUGU [U38C U53C] with self-cleavage of 0.6 or above?
satisfied

Dear colleague, could you confirm whether GGGGGCCACAGCAGAAGCGUUCACAUCGCGGCCCCUGUCAGAUUCUGGUGAAUCUGCGAAUUCUGCAGU [G25A U67A] has self-cleavage at or above 0.6?
not satisfied

self-cleavage >= 0.6 for GGGGGCCACAGCAUAAGCGUUCACGUCGCGGCCCCUGUCAGAUUCUGGUGAAUCUACGAAUUCUGCUGU [G14U G56A] ?
not satisfied

Please check the record AGGGGCCACAGCAGAAGCGUUCACGUCGCGGCCCCUGUCAGAGUCUGGUGAAUCUGCGAAUUCUGCUGU [G1A U43G] and state if its self-cleavage is at or above 0.6.
not satisfied

# check: self-cleavage of GCGGGCCACAGCAGAAGCGUUCACGUCGCGGCCCCUGUCAGAUACUGGUGAAUCUGCGAAUUCUGCUGU [G2C U44A] is greater than or equal to 0.6
not satisfied

Decide: is the reported value of self-cleavage for GGGGGCCACAGCAGAAGCGUUCACGUCGCGGCCCCUGUCAGAUUCUGGUGAAUCUUCGAAUUCUGCUAU [G56U G68A] equal to or greater than 0.6?
satisfied

Identify whether the reported self-cleavage of the following variant is 0.6 or greater: GGCGGCCACAGCAGAAGCGUUCACGUCGCGUCCCCUGUCAGAUUCUGGUGAAUCUGCGAAUUCUGCUGU [G3C G31U]
not satisfied

I'd appreciate it if you could say whether GGGGGCCACAGCAGAAGCGUUCACGUCGCGGCCCCUGUCAGAUUCUGGUGAAUCUGCGACUUCUGCUAU [A60C G68A] has self-cleavage at least equal to 0.6.
not satisfied

Reported self-cleavage at or above 0.6? GGGGGCCACAGCAGAAGCGUUCACGUCGCGGCCCCUGUCAGAUUCUGGUGAGUCUGCGAAUUCUGGUGU [A52G C66G]
satisfied

Record GGGGGCCACAGCAGAAGCGUUCACGUCGCGGCCCCUGUCAGACUCUGAUGAAUCUGCGAAUUCUGCUGU [U43C G48A] ; criterion: self-cleavage no lower than 0.6. Met?
satisfied

Given GGGGGCCACAGGAGAAGCGUUCACGUCGCGGCCCGUGUCAGAUUCUGGUGAAUCUGCGAAUUCUGCUGU [C12G C35G] , state whether its self-cleavage is at least 0.6.
not satisfied

Test whether the variant GGGGGCCACAGCAGAAGCGUUCACGUCGCGGCCCCUGUCAGAUUCUGGUGAUUCUGCGAAUUUUGCUGU [A52U C63U] records self-cleavage of 0.6 or higher.
satisfied

In plain terms: is recorded self-cleavage at least 0.6 for AGGGGCCACAGCAGAAGCGUUCACGUCGCGGCCCCUGUGAGAUUCUGGUGAAUCUGCGAAUUCUGCUGU [G1A C39G] ?
not satisfied

State whether the measured self-cleavage reaches 0.6, counting equality as reaching it, for GGGGGCCACAGCAGAAGCGUUCACGUCCCGGCCCCUGUCAGAUUCUGGUGAAUCUGCGAAUUGUGCUGU [G28C C63G]
not satisfied

Test whether the variant GGCGGCCACAGCAGAAGCGUUCACGUCGCGGCCCCUGUCAGAUUGUGGUGAAUCUGCGAAUUCUGCUGU [G3C C45G] records self-cleavage of 0.6 or higher.
not satisfied

Test whether the variant GGGGGCCACAGCAGAAGCGUUCACGUCGCGGCCCCUGUCCGAUUCUGGUGAAUCUGCGAAUUCUGCUGG [A40C U69G] records self-cleavage of 0.6 or higher.
satisfied
